Test: NCI Yeast Anticancer Drug Screen. Data for the mec2-1 strain (AID 157)
Details: S. cerevisiae mec2-1 strain, at 50.0 µM (retest, dose inferred, filed as 5.0)
About 79,000 compounds went through this panel and 15% of them were active in at least one assay; those are over-represented in the sample as a whole. Active and inactive are the calls of the source. No stated cut-off is given here; in the data, active means growth inhibition above about 70%; inactive means the rest.
Pick one: active, inactive

Data request: Could you please tell me the result logged for `O=C1C(Cl)=C(N2CCN(c3ccccn3)CC2)C(=O)c2ncccc21` in this assay?
Data returned: active

Data request: Called result for `Cc1nc2ccc(N=Nc3c(O)ccc4ccccc34)cc2[nH]1`
Data returned: inactive

Data request: Please state the recorded outcome for this compound: `O=C(CCl)Nc1cc(Cl)ccc1Cl`
Data returned: inactive

Data request: Identify the outcome logged in this assay for the compound shown: `C[CH2][Sn]([CH2]C)([O]C(=O)c1ccccc1OC)[O][Sn]([CH2]C)([CH2]C)[O]C(=O)c1ccccc1OC`
Data returned: active

Data request: Outcome logged for CCCCCC/C=C1\CCC(CN2CCOCC2)C1=O (configuration not stated) in this assay:
Data returned: active

Data request: Outcome? `COc1ccc2c(c1)Cc1cc(NC(=O)N(CCCl)N=O)ccc1-2`
Data returned: active

Data request: What classification did `CC/C(Cl)=N\OC(=O)Nc1ccc(F)c(Cl)c1` end up with in this test?
Data returned: active

---

Kindly state growth inhibition for each of the entries shown.
Experiment: NCI Yeast Anticancer Drug Screen. Data for the bub3 strain (AID 167)
Conditions: S. cerevisiae bub3 mutant strain, at 50.0 µM, stronger effect = higher value
This is part of a sample that, as a whole, favours compounds with a hit. Of some 79,000 tested, about 15% had one in any assay.
// note: answer is a bare numeric in %

`CNS(=O)(=O)c1ccccc1C=C(c1ccccc1)c1ccccc1` has a reported growth inhibition of 81.8

Documented growth inhibition of `N#CCCN(C(=S)Nc1ccc(Cl)c(Cl)c1)C1CCCCC1` : 79.2

Lookup result for `N#Cc1c(-c2ccc(Cl)cc2)c(C#N)c(=O)n(NS(=O)(=O)c2ccccc2)c1S` ; measured growth inhibition: 70.8

Input `COC(=O)c1nc(=S)[nH]c(C(=O)OC)c1C(=O)C(C)(C)C` . Output growth inhibition: -25.2

The compound CC1CCC(C(C)C)C(OC(=O)Nc2ccc(S(=O)(=O)N(C)C)cc2)C1 (configuration not stated) showed growth inhibition equal to 92.5

The compound listed as `O=C(COc1ccc(Cl)cc1)OCCO` shows growth inhibition equal to -5.6

The compound `CC(=O)Nc1ccccc1C(O)(c1ccccc1)c1ccccc1` showed growth inhibition equal to 14.7

---

Test: NCI Yeast Anticancer Drug Screen. Data for the bub3 strain (AID 167)
Conditions: S. cerevisiae bub3 mutant strain, at 50.0 µM
This is part of a sample that, as a whole, favours compounds with a hit. Of some 79,000 tested, about 15% had one in any assay. Calls of active or inactive are those of the source. Cut-off read from the data, not from the text of the source: active = growth inhibition above about 70%; inactive = the rest.
Response enum: 1 (active), 0 (inactive)

Data request: For `NC(=O)NOC(=O)c1ccccc1` , what call appears in the results of this test?
Data returned: 1

Data request: What was the test verdict on NC(=O)NOCC1NC(=O)NC1=O (stereo not given) ?
Data returned: 0

Data request: For this molecule, state the assay outcome: `OCCN1COc2cc3c(cc2C1)OCN(CCO)C3`
Data returned: 0

Data request: Outcome? `O=CC(=C\c1ccco1)/C(C=O)=C\c1ccco1`
Data returned: 0

Data request: Record lookup: outcome of this test for `CCCCCCCCCCCC(=O)c1c(O)c2ccccc2oc1=O` ?
Data returned: 0

---

Assay: NCI Yeast Anticancer Drug Screen. Data for the bub3 strain (AID 167)
Details: S. cerevisiae bub3 mutant strain, at 5.0 µM (retest, dose inferred, filed as 0.5), stronger effect = higher value
About 79,000 compounds went through this panel and 15% of them were active in at least one assay; those are over-represented in the sample as a whole.
Answer each item with its documented growth inhibition.
// return numeric value only (unit: %, not printed)

So, `CCCCCCCCCCCCCC[N+]1(CC)CCCCC1` ? Its growth inhibition was 99

Note to self: growth inhibition recorded for `S=C(N/N=C(/c1ccccc1)c1ccccn1)Nc1ccccc1` was 2

What the record says about `C(=N\NC1=NCCN1)/c1ccc(-c2cn3cc(/C=N/NC4=NCCN4)ccc3n2)cc1` : growth inhibition is 98

Entry `Cc1cc(N(CCOS(C)(=O)=O)CCOS(C)(=O)=O)ccc1C=Nc1cc(Br)c(O)c(Br)c1` — recorded growth inhibition = 2

Item: `CCCN(CCC)c1ccc(Cc2ccc(N(CCC)CCC)cc2N)c(N)c1` | growth inhibition: -1

Lookup result for CCCCOc1ccc(CC(O)CN2CCCCC2C)cc1 (stereo unspecified) ; measured growth inhibition: 36

response.value for Cc1c(C2Cc3ccccc3N2C(=O)/C=C\C(=O)O)c2ccccc2n1C (stereo unspecified) (field: growth inhibition) = 38

Reported growth inhibition of `C[CH2][Ge]([CH2]C)[CH2]C.C[CH2][Ge]([Cl])[CH2]C.C[CH2][Ge][CH2]C` : 17

Form field growth inhibition, entry CCCCC1(CC)COC(c2ccccc2OC)OC1 (stereo unspecified) : 31

The compound identified as `Cc1cc(SCC(=O)c2ccccc2)cc(C)[o+]1` registered its growth inhibition at 0

// recorded growth inhibition for `ClC1=CC(Cl)=C2N=C(C(Cl)(Cl)Cl)N=C3N=C(C(Cl)(Cl)Cl)N=C1N32` : 21

Noted for CC1=CCC[C@@H]2C1(C)CCC(C)[C@@]2(C)CC1=CC(=O)C=CC1=O (stereo partly specified) : its growth inhibition reads 14

The recorded growth inhibition for entry `O=[N+]([O-])c1ccc2c(Nc3ccccc3-c3ccccc3Nc3c4ccccc4nc4cc([N+](=O)[O-])ccc34)c3ccccc3nc2c1` equals 27

# growth inhibition of `CCCCCCCCCCNC(=O)C[n+]1cccc(C(=O)Nc2ccccc2)c1` = -1

The recorded growth inhibition for entry CCOC1(OCC)C(C)C(c2ccccc2)C(c2ccccc2)C1C (stereo unspecified) equals -8

Data point: `CN(C)[C@@H]1C(=O)C(C(=O)NCNc2nc3n[nH]nc3c(=O)[nH]2)=C(O)[C@@]2(O)C(=O)C3=C(O)c4c(O)cccc4[C@@](C)(O)[C@H]3C[C@@H]12` ; growth inhibition = 7

# compound `O=C1c2ccccc2C(=O)c2sc(Nc3ccc([N+](=O)[O-])cc3)nc21` ; its growth inhibition = 100

growth inhibition reading for `OC(c1ccc(Cl)cc1)c1ccc(Cl)cc1` : -11

Reported growth inhibition for `FC(F)(F)c1nc(SCc2ccc(Cl)cc2)n[nH]1` was -9

compound c1ccc2c(c1)CC1c3[nH]c4ccccc4c3CCN21 (stereo unspecified) , growth inhibition observed: 6

Per the record, `O=C(O)c1cc2oc(-c3ccccc3)cc2[nH]1` has growth inhibition of -14

---

Test: NCI Yeast Anticancer Drug Screen. Data for the rad50 strain (AID 155);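 further: 0% = growth of vehicle-only cultures of the same strain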
Details: S. cerevisiae rad50 strain growth inhibition; at 5.0 µM (retest, dose inferred, filed as 0.5); stronger effect = higher value
This is part of a sample that, as a whole, favours compounds with a hit. Of some 79,000 tested, about 15% had one in any assay.
Please provide measured growth inhibition for the entries that follow.
Provide the reading as a plain figure in %.

For record `CCc1ccc(/C(C)=N/NC(N)=S)cc1` the listed growth inhibition is -4

Kindly note the recorded growth inhibition for `O=[N+]([O-])CCc1ccco1` , which is 3

Query CC1(C(=O)O)CCC2(C)CCC3(C)C(=CC(=O)C4C5(C)CCC(O)C(C)(C)C5CCC43C)C2C1 (stereo not drawn) yields growth inhibition of 12

---

Assay: NCI Yeast Anticancer Drug Screen. Data for the sgs1 mgt1 strain (AID 161);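 further: 0% = growth of cultures given vehicle only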
Settings: S. cerevisiae sgs1 mgt1 strain, at 5.0 µM (retest, dose inferred, filed as 0.5), stronger effect = higher value
About 79,000 compounds went through this panel and 15% of them were active in at least one assay; those are over-represented in the sample as a whole.
Returns Yes if the recorded growth inhibition is greater than or equal to 20%, and No otherwise.

Data request: Does the reported growth inhibition for `Nc1ccccc1C(=O)/C=C/c1ccccc1` fall at or above the 20% mark?
Data returned: No

Data request: Check this molecule for growth inhibition at or above 20%: `CCCN(CCC)c1ccc(Cc2ccc(N(CCC)CCC)cc2N)c(N)c1`
Data returned: No

Data request: Hello, I need to know if `CCN(CC)CCOC(=O)Nc1cc(Cl)cc(Cl)c1` has measured growth inhibition not below 20%. Thanks!
Data returned: Yes

Data request: Is growth inhibition for `c1cc(CCSSCCc2ccncc2)ccn1` at or above 20%?
Data returned: No

Data request: Given `Cn1c(=S)sc2nc3ccccc3n2c1=S` , state whether its growth inhibition is at least 20%.
Data returned: Yes

Data request: API: above_or_equal(metric=growth inhibition, cutoff=20%) for item `O=[N+]([O-])c1c[nH]c2ncnc(SCc3ccccc3)c12`
Data returned: Yes

Data request: Quick check, growth inhibition >= 20%? `Cn1cnc([N+](=O)[O-])c1Sc1nnnn1-c1ccccc1`
Data returned: Yes

Data request: Would you say [N-]=[N+]=CC(=O)CCC(NC(=O)OCc1ccccc1)C(=O)OCc1ccccc1 (stereo not drawn) shows growth inhibition at minimum 20%?
Data returned: Yes

Data request: Confirm if growth inhibition reported for the molecule C=C1CC2(CCOc3ccccc32)OC1=O (stereo not drawn) is 20% or above.
Data returned: No

Data request: # check: growth inhibition of `N#CC(C#N)=C/C=C/c1c(Cl)cccc1Cl` is greater than or equal to 20%
Data returned: No

Data request: Quick check, growth inhibition >= 20%? CC(=O)N/N=C1/CC[C@@]2(C)C(=CC[C@H]3C4CCC(C(C)CCCC(C)C)[C@@]4(C)CCC32)C1(C)C (stereo partly drawn)
Data returned: No

Data request: Please tell me: is the molecule O=C1CC(c2ccccc2)C(c2ccccc2)CO1 (stereo not drawn) at or over 20% in terms of growth inhibition?
Data returned: Yes

Data request: Record `CN(C)c1nc(N(C)C)sc(=O)n1` ; criterion: growth inhibition no lower than 20%. Met?
Data returned: No

Data request: Threshold query (growth inhibition >= 20%) on `Cc1sc(N=Nc2c(O)[nH]c3ccccc23)nc1-c1ccccc1`
Data returned: No

Data request: Reported growth inhibition at or above 20%? `CCCCCCCCCCCCCCCCOC(=O)C[n+]1cccc(C(N)=O)c1`
Data returned: Yes

Data request: Would you say `O=S(=O)(Nc1ccc(-c2ccc(Cl)cc2)cc1)c1ccccc1` shows growth inhibition at minimum 20%?
Data returned: Yes

Data request: Check this molecule for growth inhibition at or above 20%: `O=C(CS)Nc1ccccc1`
Data returned: No

Data request: # bool: growth inhibition of `Nc1nc(N)c2nc(Sc3ccc(F)cc3)c(N)nc2n1` >= 20%
Data returned: No

Data request: Textbook exercise: given the entry `O=C1C=CC(=O)C1=Cc1ccc(Cl)c(Cl)c1` , state whether its growth inhibition is greater than or equal to 20%.
Data returned: Yes

Data request: Please indicate if the recorded growth inhibition for `O=C(O)CCCNc1ncc2c(n1)-c1ccccc1OC2` meets or exceeds 20%.
Data returned: No

Data request: // inclusive: growth inhibition at least 20%? input: `O=C(/C(Cl)=N/O)c1ccccc1`
Data returned: Yes

Data request: Answer whether growth inhibition of `CC[C@@H]1O[C@@H]([C@@H]2CC[C@](O)([C@]3(C)CC[C@@H]([C@@H](C)[C@@]4(O)CC[C@H](C)[C@@H](C[C@@]5(O)O[C@@H]([C@@H](C)[C@H](O)C[C@H]6CC[C@H](C)[C@@H]([C@@H](C)C(=O)O)O6)CC[C@@H]5C)O4)O3)O2)CC[C@@]1(C)O` is greater than or equal to 20%.
Data returned: No

Data request: State whether the measured growth inhibition reaches 20%, counting equality as reaching it, for `CS(=O)(=O)OCCN(CCOS(C)(=O)=O)c1ccc(C=Nc2cccc(Br)c2)c(Cl)c1`
Data returned: No

Data request: Could you verify whether the entry `CC1(C)OC(=O)C(=NNc2ccccc2[N+](=O)[O-])C(=O)O1` shows growth inhibition of no less than 20%?
Data returned: No

Data request: Dear colleague, could you confirm whether `Fc1ccc2nncc(SCc3ccccc3)c2c1` has growth inhibition at or above 20%?
Data returned: No

Data request: Could you please find out whether `O=C(O)C1C(c2ccccc2)=C1c1ccccc1` has growth inhibition that meets 20% or exceeds it?
Data returned: No

Data request: Does the molecule `Cc1cccc(NC(=O)c2cc3cc(N=Nc4ccccc4Cl)ccc3oc2=O)c1` have recorded growth inhibition that is 20% or more?
Data returned: Yes

Data request: Textbook exercise: given the entry `CC(C)/C(Cl)=N/OC(NC(=O)Nc1ccc(Cl)c(Cl)c1)(C(F)(F)F)C(F)(F)F` , state whether its growth inhibition is greater than or equal to 20%.
Data returned: No

Data request: Item COc1cccc2c1C(=O)c1c(O)c3c(c(O)c1C2=O)CC(O)(C(=O)CO)CC3OC1CC(N)C(I)C(C)O1 (stereo not drawn) with growth inhibition of 20% or above?
Data returned: Yes

Data request: Please indicate if the recorded growth inhibition for `c1ccc(-n2c3ccccc3c3ccccc32)cc1` meets or exceeds 20%.
Data returned: No

Data request: Hi team, for `Cc1nc(-c2ccc(N=Cc3ccc(N(CCOS(C)(=O)=O)CCOS(C)(=O)=O)cc3Cl)cc2)c(C)s1` , is the recorded growth inhibition at or above 20%?
Data returned: No

Data request: Confirm if growth inhibition reported for the molecule C=C(C)C(CC=C(C)C)Cc1c(O)cc(OC)c2c1OC(c1ccc(O)cc1O)C(O)C2=O (stereo not drawn) is 20% or above.
Data returned: No
